Where do the numbers come from? From patent US8283345B2.

Please provide measured pKi for the entries that follow.
biological target: Human PNP (Homo sapiens); assay: PNP inhibition, xanthine oxidase coupled assay; type: biochemical; details: inhibition constant Ki; inosine Km 40 μM; read-out: Ki Human PNP
Sequence (P00491 whole entry): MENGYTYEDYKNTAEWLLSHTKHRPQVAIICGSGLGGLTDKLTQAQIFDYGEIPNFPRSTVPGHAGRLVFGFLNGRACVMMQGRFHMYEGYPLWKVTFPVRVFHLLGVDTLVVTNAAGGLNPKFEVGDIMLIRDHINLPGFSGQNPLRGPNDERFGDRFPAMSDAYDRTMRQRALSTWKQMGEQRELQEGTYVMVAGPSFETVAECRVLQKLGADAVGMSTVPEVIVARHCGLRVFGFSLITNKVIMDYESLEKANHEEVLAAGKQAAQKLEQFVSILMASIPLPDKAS
Counter-ions that a name gives are not always drawn.
pKi here: minus log base 10 of the concentration, concentration in moles per litre.

O=c1[nH]cnc2c(CN3[C@H](CO)C[C@H]3CO)c[nH]c12 (racemic) [(±)-37, hydrochloride] yielded pKi of 6.55

O=c1[nH]cnc2c(CN3[C@H](CO)C[C@@H]3CO)c[nH]c12 [Compound 36, hydrochloride] yielded pKi of 7.89

O=c1[nH]cnc2c(CN3CC(CO)C3)c[nH]c12 yielded pKi of 8.20

O=c1[nH]cnc2c(CN3CC(CO)(CO)C3)c[nH]c12 yielded pKi of 9.64
